target: Estrogen receptor (Ovis aries) (UniProt P49885+Q9TU15); test: The ratio of association constant for estrogen receptor using [3H]estradiol as a tracer, relative to estradiol; format: protein assay
READOUT: RAC

Use the examples below as a reference point.
[
  {
    "COMPOUND": "CC[C@H](c1ccc(O)cc1)[C@@H](CBr)c1ccc(O)cc1",
    "READOUT VALUE": 150
  },
  {
    "COMPOUND": "CCC(c1ccc(O)cc1)C(CCI)c1ccc(O)cc1 (stereo not drawn)",
    "READOUT VALUE": 60
  },
  {
    "COMPOUND": "CCC(c1ccc(O)cc1)C(C(=O)OC)c1ccc(O)cc1 (stereo not drawn)",
    "READOUT VALUE": 70
  }
]

A = CC[C@H](c1ccc(O)cc1)[C@@H](CC(=O)C[N+]#N)c1ccc(O)cc1
B = CCCCCNC(=O)C[C@@H](c1ccc(O)cc1)[C@H](CC)c1ccc(O)cc1
C = CC[C@H](c1ccc(O)cc1)[C@@H](CI)c1ccc(O)cc1
D = CCC(c1ccc(O)cc1)C(CCBr)c1ccc(O)cc1 (stereo not drawn)
E = CCCCC(=O)C[C@@H](c1ccc(O)cc1)[C@H](CC)c1ccc(O)cc1
# sort list by recorded RAC, greatest to least API: response body holds the labels in the requested order. C, D, E, A, B

P = CCC(c1ccc(O)cc1)C(CCO)c1ccc(O)cc1 (stereo not drawn)
Q = CC[C@H](c1ccc(O)cc1)[C@@H](CC)c1ccc(O)cc1
R = CCC(c1ccc(O)cc1)C(CCF)c1ccc(O)cc1 (stereo not drawn)
S = CC[C@H](c1ccc(O)cc1)[C@@H](C(C)=O)c1ccc(O)cc1
Your job: order these 4 records by RAC, ascending. API: response body holds the labels in the requested order. P, S, R, Q

###

target: Estrogen receptor (Ovis aries) (UniProt P49885+Q9TU15); experiment: The ratio of association constant for estrogen receptor using [3H]estradiol as a tracer, relative to estradiol; type: protein assay
READOUT: RAC

[
  {
    "COMPOUND": "CC[C@H](c1ccc(O)cc1)[C@@H](CF)c1ccc(O)cc1",
    "MEASUREMENT TARGET": "Estrogen receptor (Ovis aries) (UniProt P49885+Q9TU15)",
    "RAC": 129
  },
  {
    "COMPOUND": "CC[C@H](c1ccc(O)cc1)[C@@H](CC(C)=O)c1ccc(O)cc1",
    "MEASUREMENT TARGET": "Estrogen receptor (Ovis aries) (UniProt P49885+Q9TU15)",
    "RAC": 21
  },
  {
    "COMPOUND": "CCCCCNC(=O)[C@@H](c1ccc(O)cc1)[C@H](CC)c1ccc(O)cc1",
    "MEASUREMENT TARGET": "Estrogen receptor (Ovis aries) (UniProt P49885+Q9TU15)",
    "RAC": 0.29
  }
]

a = CCCCCOC(=O)C(c1ccc(O)cc1)C(CC)c1ccc(O)cc1 (stereo unspecified)
b = CCCCCOC(=O)CC(c1ccc(O)cc1)C(CC)c1ccc(O)cc1 (stereo unspecified)
Hey, which is lower on measured RAC, a or b ? Your choice should be expressed through its label. b
(b: 3.8, a: 61)

P = CC[C@H](c1ccc(O)cc1)[C@@H](CO)c1ccc(O)cc1
Q = CC[C@H](c1ccc(O)cc1)[C@@H](CC(N)=O)c1ccc(O)cc1
R = CC[C@H](c1ccc(O)cc1)[C@@H](CC(=O)OC)c1ccc(O)cc1
S = CC[C@H](c1ccc(O)cc1)[C@@H](C)c1ccc(O)cc1
T = CC[C@H](c1ccc(O)cc1)[C@@H](C(N)=O)c1ccc(O)cc1
# sort list by recorded RAC, greatest to least API: response body holds the labels in the requested order. S, R, P, T, Q
(S: 137, R: 19, P: 8.9, T: 0.2, Q: 0.09)

Entry source: ChEMBL document CHEMBL1121965
